- targetOfAssay: Aromatase (Homo sapiens)
- Sequence (P11511 whole entry): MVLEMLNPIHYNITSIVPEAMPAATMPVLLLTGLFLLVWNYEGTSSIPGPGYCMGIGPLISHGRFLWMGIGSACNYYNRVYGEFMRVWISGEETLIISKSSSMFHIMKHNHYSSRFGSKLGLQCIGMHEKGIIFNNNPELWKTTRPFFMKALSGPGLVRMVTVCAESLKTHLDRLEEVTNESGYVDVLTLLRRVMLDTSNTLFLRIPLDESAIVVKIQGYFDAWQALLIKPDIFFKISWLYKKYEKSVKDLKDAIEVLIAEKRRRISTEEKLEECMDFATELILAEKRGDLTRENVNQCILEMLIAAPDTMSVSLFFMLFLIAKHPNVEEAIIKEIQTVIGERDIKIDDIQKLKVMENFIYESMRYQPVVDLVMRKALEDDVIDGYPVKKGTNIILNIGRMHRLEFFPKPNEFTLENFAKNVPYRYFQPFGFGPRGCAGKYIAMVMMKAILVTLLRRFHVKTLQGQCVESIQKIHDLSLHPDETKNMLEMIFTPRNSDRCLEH
observedProperty: IC50 (nM)

See these solved cases before continuing.
N#Cc1ccc(C(c2ccc(O)c(Cl)c2)n2cncn2)cc1 (centres undefined) = 5.5
NS(=O)(=O)Oc1ccc(C(c2ccc(OS(N)(=O)=O)c(Br)c2)n2cncn2)cc1Br = 43
N#Cc1ccc([C@H](c2ccc(O)c(Br)c2)n2cncn2)cc1 = 0.6

1. Oc1ccc(C(c2ccc(O)c(Br)c2)n2cncn2)cc1Br
2. COc1cc(C(c2ccc(O)c(OC)c2)n2cncn2)ccc1O
Q: Just tell me: smaller IC50 value, 1 or 2 ? Give the chosen item's label as your response.
A: 1
(1: 10 nM, 2: 215 nM)
